Assay: Pharmacokinetics of ERL and GEF in Wistar rats after four weeks consumption of water or flavoured water (plasma, UPLC-MS/MS, non-compartmental analysis)
Assay type: in vivo
Conditions: male, Wistar, rat, plasma, po, 20 mg/kg, rats, 20 mg/kg oral; water (control); n = 5, mean (SD)
measuredEndpoint: AUC(0-inf) (ng·h/mL)

1 = COc1cc2ncnc(Nc3ccc(F)c(Cl)c3)c2cc1OCCCN1CCOCC1
2 = C#Cc1cccc(Nc2ncnc3cc(OCCOC)c(OCCOC)cc23)c1
Inquiry: Lower value of AUC(0-inf) belongs to which: 1 or 2 ? State the label of the item chosen.
Reply text: 2
(2: 1320 ng·h/mL, 1: 5060 ng·h/mL)
